These entries and their values trace back to ChEMBL document CHEMBL1201862.

# Test system: TK-10
# assay_method_text: NCI tumour cell line growth inhibition, 48 h
Calls of active or inactive are those of the source. Cut-off read from the data, not from the text of the source: active = GI50 up to about 1.1 µM and inactive = higher.
quantity_name: GI50

Here are 5 compounds. What values of GI50 were reported for them?
1. N#Cc1ccc(C(C2C(=O)NC(=O)NC2=O)C2C(=O)NC(=O)NC2=O)cc1
2. C=CCN(N=O)C(=O)N(CCCCC(NC(C)=O)C(=O)NCc1ccccc1)Cc1ccccc1 (stereo not given)
3. OCC1OC(O[C@H]2CN3[C@H](O)[C@@H](O)[C@H](O)[C@H]3C2O)C(O)C(O)C1O (stereo not given in full)
4. O=C(NCc1cccnc1)C(=O)NCc1cccnc1
5. COc1cc2c(cc1OC)[C@]1(O)C(=O)c3ccc4c(c3O[C@@H]1CO2)C[C@H](C(C)(C)O)O4

A.
1: > 100 µM (inactive); 2: 35.1 µM (inactive); 3: > 100 µM (inactive); 4: > 100 µM (inactive); 5: > 100 µM (inactive)

Provide GI50 for all items below, preserving their order.
1. COCC(=O)CP(=O)(OC)OC
2. CCCCCCCCCCCC(=O)OCC1OC(n2cc(F)c(=O)[nH]c2=O)C(NC(=O)OCc2ccccc2)C(O)C1O (stereo not given)
3. O=C(Nc1nc(C23CC4CC(CC(C4)C2)C3)cs1)c1cc2cc(Br)cc(Br)c2oc1=O
4. CCn1c(=O)c2c3ccc(OC(C)=O)cc3[nH]c2c2ccc(OC(C)=O)cc21
5. N#C/C(=C\NC(=S)Nc1ccc(S(=O)(=O)Nc2ccccn2)cc1)C(N)=O
6. BrCCCCCOc1ccc(-c2c3ccccc3c(-c3ccc(OCCCCCBr)cc3)c3ccccc23)cc1
7. COC1/C=C\OC2(C)Oc3c(C)c(O)c4c(O)c(c(/C=N\OCCCc5ccccc5)c(O)c4c3C2=O)NC(=O)/C(C)=C\C=C/C(C)C(O)C(C)C(O)C(C)C(OC(C)=O)C1C (stereo not given)

A.
1. > 100 µM (inactive)
2. 38.8 µM (inactive)
3. > 100 µM (inactive)
4. 51.5 µM (inactive)
5. > 100 µM (inactive)
6. > 100 µM (inactive)
7. 3.23 µM (inactive)

Hello, I would appreciate it if you could give GI50 for each entry below.
1. O=[N+]([O-])c1cccc([N+](=O)[O-])c1Cl
2. O=C(Cc1ccccc1[N+](=O)[O-])C(CO)c1ccccc1[N+](=O)[O-] (stereo not given)
3. C/C(=N/NC(=O)C[N+](C)(C)C)C(CN(C)C)C(=O)Nc1ccccc1 (stereo not given)

A.
21.9 µM (inactive)
> 100 µM (inactive)
> 100 µM (inactive)

* * *

# Tested on: OVCAR-3
# assay_method_text: NCI tumour cell line growth inhibition, 48 h
Active and inactive are the calls of the source. Cut-off read from the data, not from the text of the source: active = GI50 up to about 1.1 µM and inactive = higher.
Form entry, call: pick from active, inactive

compound	study_target	group
O=C(NCCCCCCNC(=O)c1cc(-c2ccccc2)nc2ccccc12)c1cc(-c2ccccc2)nc2ccccc12	OVCAR-3	inactive

Q. Which outcome was entered for the compound `Nc1nc2cc(COc3ccc(C(=O)O)cc3)ccc2nc1-c1ccccc1` in this test?
A. inactive

Q. How did this test come out for COc1cc2c(cc1OC)C1=Cc3ccc(OC)c(OC)c3C(C#N)N1CC2 (configuration not stated) ?
A. inactive

* * *

# System: NCI-H460
# assay_method_text: NCI tumour cell line growth inhibition, 48 h
Activity calls are given as the source filed them. Cut-off read from the data, not from the text of the source: active = GI50 up to about 1.1 µM and inactive = higher.
Exercise: state measured GI50 for each of the compounds provided.

Count: 5. Required value per item: GI50.
1. C[n+]1c(-c2ccc(/C=N/Nc3ccnc(N/N=C/c4ccc(-c5cn6ccsc6[n+]5C)cc4)n3)cc2)cn2ccsc21
2. CCOC(=O)NC(N(C)C(C(C)C)P(=O)(OCC)OCC)(C(F)(F)F)C(F)(F)F (centres undefined)
3. N/N=C1\C(=O)N(Cc2ccccc2)C(=O)C1C(=O)NCc1ccccc1 (centres undefined)
4. CC(NC1=NCCO1)c1ccccc1Cl (centres undefined)
5. COc1cc2c(cc1OC)C1=Cc3ccc(OC)c(OC)c3C(C#N)N1CC2 (centres undefined)

A.
1. 16.9 µM (inactive)
2. > 100 µM (inactive)
3. > 100 µM (inactive)
4. > 100 µM (inactive)
5. 31.7 µM (inactive)
